Recorded shrunken log2 fold change for the following sequences
- Tested on: Escherichia coli TOP10;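 note: peptides expressed intracellularly from a pBAD plasmid library in pooled LB shake-flask culture, induced with 0.3% L-arabinose, DNA abundance read by NGS, three biological replicates, DESeq2 with apeglm shrinkage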
- EXPERIMENT SUMMARY: shrunken log2 fold change of peptide-encoding DNA abundance (4.5 h post-induction vs induction); higher = less antimicrobial activity (less host growth inhibition)
- MEASUREMENT CONDITIONS: time post-induction: 4.5 h; library: site-saturation at positions 5, 18, 19, 20
Please reply with the number alone, leaving off any unit.

// solved cases for shrunken log2 fold change follow
[
  {
    "SEQUENCE STRING": "RRIRNRPPRLPRPRPRPLSLPRP",
    "shrunken log2 fold change": -0.291
  },
  {
    "SEQUENCE STRING": "RRIRNRPPRLPRPRPRPPPPPRP",
    "shrunken log2 fold change": 1.25
  },
  {
    "SEQUENCE STRING": "RRIRKRPPRLPRPRPRPICEPRP",
    "shrunken log2 fold change": 0.115
  }
]

Query: Bench note: what shrunken log2 fold change did RRIRFRPPRLPRPRPRPHVTPRP show?
Result: -0.211

Query: Also RRIRYRPPRLPRPRPRPGLRPRP , if possible.
Result: 0.0396

Query: Also RRIRHRPPRLPRPRPRPYDIPRP , if possible.
Result: -0.387

Query: Also RRIRWRPPRLPRPRPRPGQIPRP , if possible.
Result: -0.0275

Query: Also RRIRWRPPRLPRPRPRPAKGPRP , if possible.
Result: -0.0312

Query: Also RRIRERPPRLPRPRPRPMGIPRP , if possible.
Result: -0.113

Query: Also RRIRTRPPRLPRPRPRPPIKPRP , if possible.
Result: -0.368

Query: Also RRIRVRPPRLPRPRPRPQVNPRP , if possible.
Result: -0.795
